System: MDA-MB-468 breast
Assay: NCI tumour cell line growth inhibition, 48 h; in the data active means GI50 below about 0.43 µM; inactive means the rest
Outcomes: active, inactive

{"compound": "Cn1c(=O)nc2n(-c3ccc(Cl)cc3)c3cc(Cl)ccc3nc-2c1=O", "groupLabel": "inactive"}
{"compound": "CN(C)CC(=O)Nc1ccc2ncnc(Nc3ccc(Oc4cccc(C(F)(F)F)c4)c(Cl)c3)c2c1", "groupLabel": "inactive"}
{"compound": "COc1ccc(/C=C2\\COc3ccc(O)c(O)c3C2=O)c(OC)c1OC", "groupLabel": "inactive"}
{"compound": "CC(C)(C)c1cc(/C=N/NC(=O)c2ccccc2NC(=O)c2cccs2)c(O)c(C(C)(C)C)c1", "groupLabel": "active"}
{"compound": "O=C1CC(c2ccccc2)Cc2nc3ccc(Br)cc3cc21 (stereo not given)", "groupLabel": "inactive"}
{"compound": "O=C1c2cccnc2C(=O)c2c1c(C(=O)OCCN1CCCCC1)c1ccccn21", "groupLabel": "inactive"}
{"compound": "Clc1cc(Cl)c(OCCCCCCN2CCNCC2)c(Cl)c1", "groupLabel": "inactive"}
{"compound": "COc1cc(CNCCN2C(=O)c3ccc4c5c(ccc(c35)C2=O)C(=O)N(CCNCc2cc(OC)c(OC)c(OC)c2)C4=O)cc(OC)c1OC", "groupLabel": "active"}
{"compound": "COc1cc(N2C(=O)[C@H](c3ccccc3)C2c2ccc(SC)cc2)cc(OC)c1OC (stereo not given in full)", "groupLabel": "active"}
{"compound": "CC(C)(C)CC(C)(C)c1ccc(O)c(Cc2ccc(Cl)cc2Cl)c1", "groupLabel": "inactive"}

###

System: MDA-MB-468 breast
Assay: NCI tumour cell line growth inhibition, 48 h

{"compound": "COC1=C(C)C(=O)c2c(c(CCCl)c3n2CCC3OC(C)=O)C1=O (stereo not given)", "measurementTarget": "MDA-MB-468 breast", "unitName": "µM", "modifierSign": "=", "TGI": 22.5}
{"compound": "O=C1CC(c2ccccc2)Cc2nc3ccc(Br)cc3cc21 (stereo not given)", "measurementTarget": "MDA-MB-468 breast", "unitName": "µM", "modifierSign": "=", "TGI": 7.94}
{"compound": "CC1(C)N=C(N)N=C(N)N1c1ccc(Cl)cc1", "measurementTarget": "MDA-MB-468 breast", "unitName": "µM", "modifierSign": ">", "TGI": 100}
{"compound": "Cn1cc(-c2nc(-c3c[nH]c4ncccc34)cs2)c2ccccc21", "measurementTarget": "MDA-MB-468 breast", "unitName": "µM", "modifierSign": "=", "TGI": 0.82}
{"compound": "NC(=S)N/N=C1\\c2ccccc2-c2c(F)c(F)c(F)c(F)c21", "measurementTarget": "MDA-MB-468 breast", "unitName": "µM", "modifierSign": "=", "TGI": 5.14}
{"compound": "CN(C)CC(=O)Nc1ccc2ncnc(Nc3ccc(Oc4cccc(C(F)(F)F)c4)c(Cl)c3)c2c1", "measurementTarget": "MDA-MB-468 breast", "unitName": "µM", "modifierSign": "=", "TGI": 3.23}
{"compound": "COc1cc(/C=C/c2cc(/C=C/c3ccc(O)c(OC)c3)n(C(=O)Nc3ccccc3Cl)n2)ccc1O", "measurementTarget": "MDA-MB-468 breast", "unitName": "µM", "modifierSign": "=", "TGI": 0.748}
{"compound": "COCCOC1=CC(=O)c2c(O)ccc(O)c2C1=O", "measurementTarget": "MDA-MB-468 breast", "unitName": "µM", "modifierSign": "=", "TGI": 2.78}
{"compound": "COc1ccc(/C=C2\\COc3ccc(O)c(O)c3C2=O)c(OC)c1OC", "measurementTarget": "MDA-MB-468 breast", "unitName": "µM", "modifierSign": "=", "TGI": 6.28}
{"compound": "Cc1ccc2cccc(OC(=O)Nc3cccc(C(F)(F)F)c3)c2n1", "measurementTarget": "MDA-MB-468 breast", "unitName": "µM", "modifierSign": "=", "TGI": 12.9}
